Where these numbers come from: paper PMC5404560

# Method notes: Intravenous/oral pharmacokinetics and tissue distribution in mice
# Type: in vivo
# Experimental context: female, ICR, mouse, plasma, oral, 10 mg/kg p.o. vs 10 mg/kg i.v., read-out: F (absolute oral bioavailability)
Measurement label: bioavailability (%)
I only need the number, in %, no unit after it.

Sample O=C(N[C@@H](Cc1ccccn1)C(=O)N[C@@H](CCc1ccccc1)B(O)O)c1cnccn1 [Compound 58] — what was its bioavailability?
14

----------
# Method notes: Intravenous/oral pharmacokinetics and tissue distribution in mice
# Assay type: in vivo
# Experimental context: female, ICR, mouse, po, 100 mg/kg p.o., brain, read-out: T½, Brain (converted)
Measurement label: half-life (min)
I only need the number, in min, no unit after it.

Sample O=C(N[C@@H](Cc1ccccn1)C(=O)N[C@@H](CCc1ccccc1)B(O)O)c1cnccn1 [Compound 58] — what was its half-life?
12
